Reported inhibition is given for each of the following molecules.
Target: Proteinase-activated receptor 1 (Homo sapiens)
Assay: Antagonist activity at PAR1 in human EAhy926 cells assessed as inhibition of TFLLRN-NH2-induced intracellular calcium mobilization pretreated for 15 mins followed by TFLLRN-NH2 addition measured at 5 secs interval for 250 secs by Fluo-4/AM dye based fluorescence assay
Assay type: functional, cell-based
Set-up: concentration or dose not given beside the values
Numeric answer only, unit % assumed.

Example results:
C#CCCC(=O)Nc1cccc(NC(=O)c2ccccc2Br)c1 = 79
CC(C)CC(=O)Nc1cccc(NC(=O)c2ccccc2Br)c1 = 74

Looking for the measured inhibition of CCOc1cc2c(c(F)c1OCC)C(=N)N(CC(=O)c1cc(N3CCOCC3)c(OC)c(C(C)(C)C)c1)C2 [ATOPAXAR] , can you help?
94

Again, but for C#CCCC(=O)NCC[C@H](NC(=O)[C@H](Cc1ccc(F)c(F)c1)NC(=O)Nc1ccc2c(CN3CCCC3)nn(Cc3c(Cl)cccc3Cl)c2c1)C(=O)NCc1ccccc1
76

====

Molecular target: Proteinase-activated receptor 2 (Homo sapiens, UniProt P55085)
Sequence (P55085 whole entry): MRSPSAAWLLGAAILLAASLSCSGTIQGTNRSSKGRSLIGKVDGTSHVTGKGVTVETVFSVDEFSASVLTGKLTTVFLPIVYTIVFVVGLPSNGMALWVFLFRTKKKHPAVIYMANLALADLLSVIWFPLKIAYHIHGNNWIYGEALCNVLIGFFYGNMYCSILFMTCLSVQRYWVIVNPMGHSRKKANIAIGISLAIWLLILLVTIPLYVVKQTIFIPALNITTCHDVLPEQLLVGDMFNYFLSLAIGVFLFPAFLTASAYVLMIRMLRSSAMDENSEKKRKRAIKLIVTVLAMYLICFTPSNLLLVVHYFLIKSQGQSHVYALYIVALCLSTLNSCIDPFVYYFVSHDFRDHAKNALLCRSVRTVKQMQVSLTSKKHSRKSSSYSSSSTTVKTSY
Assay: Antagonist activity at PAR2 in human EAhy926 cells assessed as inhibition of SLIGKV-NH2-induced intracellular calcium mobilization pretreated for 15 mins followed by SLIGKV-NH2 addition measured at 5 secs interval for 250 secs by Fluo-4/AM dye based fluorescence assay
metric.name: pIC50
In simple prose, pIC50 is minus the logarithm base ten of a concentration in moles per litre.

Looking for the measured pIC50 of CC[C@H](C)[C@H](NC(=O)[C@H](CC1CCCCC1)NC(=O)c1ccno1)C(=O)NCc1ccccc1OC , can you help?
5.77

====

Target: Proteinase-activated receptor 1 (Homo sapiens)
Sequence (whole entry): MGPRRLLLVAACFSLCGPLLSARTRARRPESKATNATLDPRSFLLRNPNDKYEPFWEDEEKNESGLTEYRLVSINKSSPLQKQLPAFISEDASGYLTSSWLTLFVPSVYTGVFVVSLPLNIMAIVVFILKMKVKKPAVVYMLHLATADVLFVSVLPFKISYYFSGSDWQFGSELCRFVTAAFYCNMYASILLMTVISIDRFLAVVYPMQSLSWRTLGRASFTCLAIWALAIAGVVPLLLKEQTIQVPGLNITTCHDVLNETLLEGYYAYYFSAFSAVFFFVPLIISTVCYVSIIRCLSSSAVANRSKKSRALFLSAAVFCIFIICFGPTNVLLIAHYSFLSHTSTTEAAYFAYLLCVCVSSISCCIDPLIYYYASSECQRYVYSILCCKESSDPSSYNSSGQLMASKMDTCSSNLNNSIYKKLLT
Assay: Antagonist activity at PAR1 in human EAhy926 cells assessed as inhibition of TFLLRN-NH2-induced intracellular calcium mobilization pretreated for 15 mins followed by TFLLRN-NH2 addition measured at 5 secs interval for 250 secs by Fluo-4/AM dye based fluorescence assay
Type: functional, cell-based
Set-up: concentration or dose not given beside the values
metric.name: inhibition (%)
Numeric answer only, unit % assumed.

CCCCC(=O)Nc1cccc(NC(=O)c2ccccc2Br)c1 = 49
CCC(=O)Nc1cccc(NC(=O)c2ccccc2Br)c1 = 68

We next turn to a different compound, shown below.
Identify the measured inhibition of CCCC(=O)Nc1cccc(NC(=O)c2ccccc2N=[N+]=[N-])c1 for Proteinase-activated receptor 1 (Homo sapiens).
77
